Source: patent US20260116991A1

Target: T1, monkey GPC3-His protein (monkey)
T1 construct: Bought protein; also called monkey GPC3 protein
Assay: ELISA, monkey GPC3-His coated; antibody 0.02 nM
For each entry below, report its OD450 nm value.

hAb001H2L1b (antibody, human IgG1, V domains shown, Humanized F2.169.2, H2+L1b) VH: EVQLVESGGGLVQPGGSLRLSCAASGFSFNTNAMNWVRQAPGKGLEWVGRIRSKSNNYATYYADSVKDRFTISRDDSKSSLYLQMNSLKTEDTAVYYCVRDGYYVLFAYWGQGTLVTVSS VL: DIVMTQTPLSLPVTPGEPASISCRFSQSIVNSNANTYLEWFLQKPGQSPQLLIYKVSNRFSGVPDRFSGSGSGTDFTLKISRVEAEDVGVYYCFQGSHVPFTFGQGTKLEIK    0.865

Next up:
Task: Can you share its OD450 nm? I mean this binder: hAb001H1L1a (antibody, human IgG1, V domains shown, Humanized F2.169.2, H1+L1a) VH: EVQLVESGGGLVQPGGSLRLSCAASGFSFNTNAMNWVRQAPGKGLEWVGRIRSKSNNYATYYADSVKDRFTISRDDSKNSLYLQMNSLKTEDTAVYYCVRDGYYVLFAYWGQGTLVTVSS VL: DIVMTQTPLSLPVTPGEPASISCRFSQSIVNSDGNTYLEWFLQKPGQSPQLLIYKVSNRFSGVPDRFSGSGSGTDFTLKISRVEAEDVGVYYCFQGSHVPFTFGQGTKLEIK
Result: 0.39
